# system: Gamma-aminobutyric acid receptor subunit alpha-2 (Homo sapiens)
# Sequence (whole entry): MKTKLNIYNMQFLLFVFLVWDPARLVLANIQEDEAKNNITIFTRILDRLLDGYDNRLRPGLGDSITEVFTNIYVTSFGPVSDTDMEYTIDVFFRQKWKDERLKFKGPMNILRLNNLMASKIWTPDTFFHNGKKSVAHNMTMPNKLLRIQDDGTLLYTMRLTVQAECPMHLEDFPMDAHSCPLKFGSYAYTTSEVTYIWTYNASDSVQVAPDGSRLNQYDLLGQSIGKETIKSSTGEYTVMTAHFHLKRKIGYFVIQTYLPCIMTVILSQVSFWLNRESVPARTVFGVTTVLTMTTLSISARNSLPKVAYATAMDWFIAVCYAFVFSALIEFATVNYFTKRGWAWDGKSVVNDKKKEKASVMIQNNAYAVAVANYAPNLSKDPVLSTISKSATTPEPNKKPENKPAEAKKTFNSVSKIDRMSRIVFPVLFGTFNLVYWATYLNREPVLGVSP
# methodDescription: Maximum percent potentiation against gamma-aminobutyric acid (GABA) A receptor, alpha 2
# setupConditions: Xenopus laevis
quantityKind: Activity (%)
Report the figure in % without appending any unit label.

Recorded Activity (molecule CCC(=O)N1CCc2nc(O)n3cc(-c4ccccc4F)nc3c2C1 ): 22

Recorded Activity (molecule CN1CCc2nc(O)n3cc(-c4ccccc4F)nc3c2C1 ): 0

Recorded Activity (molecule CCCCN1CCc2nc(O)n3cc(-c4ccccc4F)nc3c2C1 ): 86

Recorded Activity (molecule Oc1nc2c(c3nc(-c4ccccc4F)cn13)CN(Cc1c[nH]cn1)CC2 ): 58

Recorded Activity (molecule COc1ccc(-c2cn3c(O)nc4c(c3n2)CN(Cc2ccccc2)CC4)cc1 ): 142

Recorded Activity (molecule Cc1ccc(-c2cn3c(O)nc4c(c3n2)CN(Cc2ccccc2)CC4)cc1 ): 94
